- Test system: winter barley
- assay_overview: Test E winter barley
- Format: in vivo, Hordeum vulgare
- measurement_setup: Preemergence; Rate 1000 g/ha; 0 to 100 scale, 0 no effect, 100 complete control
parameter: Plant response rating, Barley (winter)
One number for each entry.

* CC(C)N(C(=O)n1oc(=O)n(C2CCCC2)c1=O)c1ccccc1 [Compound 283] | 80
* CCCCCn1c(=O)on(C(=O)N(c2ccc(F)cc2)C(C)C)c1=O [Compound 290] | 70
* CC(C)N(C(=O)n1oc(=O)n(CC(C)(C)C)c1=O)c1ccc(F)cc1 [Compound 246] | 60

Plant response rating, Barley (winter) for Cc1ccccc1N(C(=O)n1oc(=O)n(-c2ccccc2C)c1=O)C(C)C [Compound 236] ? 50

###

- Tested on: surinam grass
- assay_overview: Test B pre/postemergence surinam grass
- Format: in vivo, Brachiaria decumbens
- measurement_setup: Preemergence, Rate 125 g/ha; scale of 0 to 10 where 0 is no effect and 10 is complete control
For each record, write down the corresponding Plant response rating, B. signalgrass.
One number for each entry.

Observe how each entry below is paired with its result.
- CC(C)N(C(=O)n1oc(=O)n(CCF)c1=O)c1ccc(F)cc1F [Compound 670]: 9
- CC(C)N(C(=O)n1oc(=O)n(CC#N)c1=O)c1ccccc1 [Compound 434]: 0
- CC(C)N(C(=O)n1oc(=O)n(C(CF)CF)c1=O)c1ccc(Cl)cc1 [Compound 468]: 2
- CC(=O)C(C)n1c(=O)on(C(=O)N(c2ccc(F)cc2)C(C)C)c1=O (stereo not drawn) [Compound 400]: 0
- CC(C)N(C(=O)n1oc(=O)n(C(C)C)c1=O)c1ccc(Br)cc1 [Compound 691]: 8
- CC(C)N(C(=O)n1oc(=O)n(C(C)C(=O)N(C)C)c1=O)c1ccc(F)cc1 (stereo not drawn) [Compound 478]: 6
- CC(C)N(C(=O)n1oc(=O)n(Cc2nnc(-c3ccccc3)o2)c1=O)c1ccccc1 [Compound 716]: 0
- CC(C)N(C(=O)n1oc(=O)n(CC(=O)N(C)C)c1=O)c1ccc(F)cc1F [Compound 440]: 4

Look up Plant response rating, B. signalgrass for this molecule: CC(C)N(C(=O)n1oc(=O)n(C(C)C(=O)N(C)C)c1=O)c1ccc(F)cc1F (stereo not drawn) [Compound 481] 9

###

Kindly supply the reported Plant response rating, Redroot pigweed values for the records listed here.
- Tested on: pigweed
- assay_overview: Test B pre/postemergence pigweed
- Assay type: in vivo, Amaranthus retroflexus
- measurement_setup: Preemergence, Rate 500 g/ha; scale of 0 to 10 where 0 is no effect and 10 is complete control

• CC(C)N(C(=O)n1oc(=O)n(CCF)c1=O)c1ccc(Cl)cc1 = 10
• CC(C)N(C(=O)n1oc(=O)n(CC(Cl)Cl)c1=O)c1ccc(F)cc1F = 10
• CC(C)N(C(=O)n1oc(=O)n(-c2cccnc2)c1=O)c1ccc(F)cc1 = 0

Entry COC(=O)C(C)n1c(=O)on(C(=O)N(c2ccc(F)cc2)C(C)C)c1=O (stereo not shown) has what Plant response rating, Redroot pigweed? 10

###

- System: morningglory
- assay_overview: Test B pre/postemergence morningglory
- Assay type: in vivo, Ipomoea hederacea
- measurement_setup: Preemergence, Rate 250 g/ha; scale of 0 to 10 where 0 is no effect and 10 is complete control
parameter: Morningglory plant response rating
Numbers only.

Record excerpt, results attached:
- CCOC(=O)C(C)N(C(=O)n1oc(=O)n(CC)c1=O)c1ccc(F)cc1 (stereo not shown): 0
- CC(C)N(C(=O)n1oc(=O)n(-c2ccsc2)c1=O)c1ccc(F)cc1: 0
- CC(C)N(C(=O)n1oc(=O)n(CC(=O)C(C)(C)C)c1=O)c1ccc(F)cc1: 0
- COC(=O)CCCn1c(=O)on(C(=O)N(c2ccc(F)cc2)C(C)C)c1=O: 0
- CC(C)N(C(=O)n1oc(=O)n(CC(C)(C)C)c1=O)c1ccc(F)cc1: 0

# per-item lookup of Morningglory plant response rating; items listed below
1. Cc1ccccc1-n1c(=O)on(C(=O)N(c2ccc(Cl)cc2)C(C)C2CC2)c1=O (stereo not shown)
2. CC(C)=CCCC(C)=CCn1c(=O)on(C(=O)N(c2ccc(F)cc2)C(C)C)c1=O
3. CC(C)N(C(=O)n1oc(=O)n(-c2cccnc2)c1=O)c1ccc(F)cc1
4. CC(C)N(C(=O)n1oc(=O)n(C2CCCO2)c1=O)c1ccc(F)cc1 (stereo not shown)
5. CCOCn1c(=O)on(C(=O)N(c2ccc(F)cc2)C(C)C)c1=O

0
0
0
0
0

###

- Tested on: morningglory
- assay_overview: Test B pre/postemergence morningglory
- Assay type: in vivo, Ipomoea hederacea
- measurement_setup: Postemergence, Rate 125 g/ha; scale of 0 to 10 where 0 is no effect and 10 is complete control
parameter: Morningglory plant response rating
Numbers only.

Recorded results for 3 compounds are shown here.
- CC(C)N(C(=O)n1oc(=O)n([C@@H](C)c2ccccc2)c1=O)c1ccc(Cl)cc1: 5
- CC(C)N(C(=O)n1oc(=O)n(C2CCCCC2)c1=O)c1ccccc1: 10
- Cc1nsc(C)c1-n1c(=O)on(C(=O)N(c2ccc(Cl)cc2)C(C)C)c1=O: 2

Checklist item: Morningglory plant response rating tested on morningglory, entry COc1ccccc1Cn1c(=O)on(C(=O)N(c2ccccc2)C(C)C)c1=O , value? 10

###

- Test system: morningglory
- assay_overview: Test B pre/postemergence morningglory
- Format: in vivo, Ipomoea hederacea
- measurement_setup: Rate 62 g/ha, Postemergence; scale of 0 to 10 where 0 is no effect and 10 is complete control
Each entry gets not fulfilled if its Morningglory plant response rating stays under 3, and fulfilled if its Morningglory plant response rating is 3 or above.

Check out these entries, answers already filled in.
* CC(C)N(C(=O)n1oc(=O)n(C2CCCO2)c1=O)c1ccc(F)cc1 (stereo not shown) [Compound 345] | not fulfilled
* CC1CCCCC1n1c(=O)on(C(=O)N(c2ccccc2)C(C)C)c1=O (stereo not shown) [Compound 162] | fulfilled
* CC(C)N(C(=O)n1oc(=O)n(Cc2ccco2)c1=O)c1ccc(Cl)cc1 [Compound 206] | not fulfilled
* CC(=O)OCCCCn1c(=O)on(C(=O)N(c2ccc(F)cc2)C(C)C)c1=O [Compound 211] | fulfilled
* Cc1ccccc1-n1c(=O)on(C(=O)N(c2ccc(F)cc2)C2CCC2)c1=O [Compound 200] | not fulfilled
* CC(C)N(C(=O)n1oc(=O)n(CC=Cc2ccccc2)c1=O)c1ccc(F)cc1 [Compound 210] | not fulfilled
* CCc1ccc(N(C(=O)n2oc(=O)n(-c3ccccc3C)c2=O)C(C)C)cc1 [Compound 230] | not fulfilled
* CC(C)N(C(=O)n1oc(=O)n(N(C)C)c1=O)c1ccc(F)cc1 [Compound 170] | not fulfilled

// inclusive: Morningglory plant response rating at least 3? input: CC(C)N(C(=O)n1oc(=O)n(C2CCCCC2)c1=O)c1ccccc1 [Compound 112] fulfilled

Does CCOC(=O)C=CCn1c(=O)on(C(=O)N(c2ccc(F)cc2)C(C)C)c1=O [Compound 214] have a reported Morningglory plant response rating of at least 3? not fulfilled

###

- System: blackgrass
- assay_overview: Test B pre/postemergence blackgrass
- Assay type: in vivo, Alopecurus myosuroides
- measurement_setup: Preemergence, Rate 500 g/ha; scale 0 to 10 (0 no effect, 10 complete control)
parameter: Blackgrass plant response rating
Numbers only.

Worked examples, 3 compounds total:
* CCN(CC)C(=O)n1oc(=O)n(Cc2ccccc2)c1=O | 3
* C=CCn1c(=O)on(C(=O)N(c2ccc(F)cc2)C2CC2)c1=O | 5
* Cc1nsc(C)c1-n1c(=O)on(C(=O)N(c2ccc(Cl)cc2)C(C)C)c1=O | 0

Can you look up the measured Blackgrass plant response rating of CC1CCCCC1n1c(=O)on(C(=O)N(c2ccccc2)C(C)C)c1=O (stereo not shown) for me? 3

###

- Tested on: velvetleaf
- assay_overview: Test B pre/postemergence velvetleaf
- Type: in vivo, Abutilon theophrasti
- measurement_setup: Rate 125 g/ha; Preemergence; scale of 0 to 10 where 0 is no effect and 10 is complete control
Please respond with reported Velvetleaf plant response rating for every item in the list.
Answers are plain numbers.

* CCOC(=O)C(C)N(C(=O)n1oc(=O)n(CC)c1=O)c1ccc(F)cc1 (centres unmarked) | 0

Return reported Velvetleaf plant response rating values for all items listed beneath this line.
1. CC(C)N(C(=O)n1oc(=O)n(C2CC2)c1=O)c1ccc(F)cc1
2. CCOCn1c(=O)on(C(=O)N(c2ccc(F)cc2)C(C)C)c1=O
3. CC(C)N(C(=O)n1oc(=O)n(-c2ccsc2)c1=O)c1ccc(F)cc1

1: 8; 2: 0; 3: 0

Which Velvetleaf plant response rating is reported for this compound? CCc1ccc(N(C(=O)n2oc(=O)n(-c3ccccc3C)c2=O)C(C)C)cc1 0

###

- Tested on: bedstraw
- assay_overview: Test B pre/postemergence bedstraw
- Type: in vivo, Galium aparine
- measurement_setup: Preemergence, Rate 500 g/ha; scale of 0 to 10 where 0 is no effect and 10 is complete control
parameter: Bedstraw plant response rating
One number for each entry.

Past entries and their recorded results:
• CC(C)N(C(=O)n1oc(=O)n(CCCCF)c1=O)c1ccc(Cl)cc1 [Compound 551] = 10
• CCC(C)n1c(=O)on(C(=O)N(c2ccccc2)C(C)C)c1=O (centres unmarked) [Compound 612] = 10

List reported Bedstraw plant response rating for each of these molecules:
1. CCC=CCn1c(=O)on(C(=O)N(c2ccc(Cl)cc2)C(C)C)c1=O [Compound 552]
2. CC(C)N(C(=O)n1oc(=O)n(CCC(F)(F)F)c1=O)c1ccccc1 [Compound 584]
3. CC(C)N(C(=O)n1oc(=O)n(CCC(F)=C(F)F)c1=O)c1ccccc1 [Compound 566]

1. 8
2. 9
3. 0

// provenance: patent US6737383B1
